Answer each item with its documented mass density.
Details: 298.15 K; 101.33 kPa; Liquid; Vibrating tube method
Numbers only, in kg/m3.

CCCCn1cc[n+](C)c1.O=S(=O)([O-])C(F)(F)F [1-butyl-3-methylimidazolium trifluoromethanesulfonate] ... 1297.6
CCCCCCn1cc[n+](C)c1.F[B-](F)(F)F [1-hexyl-3-methylimidazolium tetrafluoroborate] ... 1145.3
CCn1cc[n+](C)c1.O=S(=O)([O-])C(F)(F)F [1-ethyl-3-methylimidazolium trifluoromethanesulfonate] ... 1385.3
CCCCn1cc[n+](C)c1.COS(=O)(=O)[O-] [1-butyl-3-methylimidazolium methyl sulfate] ... 1207.4
CCOS(=O)(=O)[O-].CCn1cc[n+](C)c1 [1-ethyl-3-methylimidazolium ethyl sulfate] ... 1237.2
CCCCn1cc[n+](C)c1.F[B-](F)(F)F [1-butyl-3-methylimidazolium tetrafluoroborate] ... 1204.1

Now look at this one.
Summary for this molecule, C[N+](=O)[O-] [nitromethane] : mass density is 1133.4

----------
Answer each item with its documented speed of sound.
Conditions: 308.15 K; 101.33 kPa; Liquid; Anton-Paar DSA48 sound analyzer
Give bare numbers, in m/s.

The cases that follow already have their speed of sound on record.
CCCC[n+]1cccc(C)c1.F[B-](F)(F)F [1-butyl-3-methylpyridinium tetrafluoroborate] ... 1562.6
CCCCn1cc[n+](C)c1.O=S(=O)([O-])C(F)(F)F [1-butyl-3-methylimidazolium trifluoromethanesulfonate] ... 1369.8
C[N+](=O)[O-] ... 1280.7

State recorded speed of sound for all listed compounds.
1. CCCCn1cc[n+](C)c1.COS(=O)(=O)[O-] [1-butyl-3-methylimidazolium methyl sulfate]
2. CCOS(=O)(=O)[O-].CCn1cc[n+](C)c1 [1-ethyl-3-methylimidazolium ethyl sulfate]
3. CCCCn1cc[n+](C)c1.F[B-](F)(F)F [1-butyl-3-methylimidazolium tetrafluoroborate]
4. CCCCCCn1cc[n+](C)c1.F[B-](F)(F)F [1-hexyl-3-methylimidazolium tetrafluoroborate]

output:
1. 1633.5
2. 1654
3. 1543.9
4. 1494.5

Summary for this compound, CCn1cc[n+](C)c1.O=S(=O)([O-])C(F)(F)F [1-ethyl-3-methylimidazolium trifluoromethanesulfonate] : speed of sound is 1413.1

----------
Conditions: 303.15 K; 101.33 kPa; Liquid; Anton-Paar DSA48 sound analyzer
Answer each item with its documented speed of sound.
Give bare numbers, in m/s.

CCn1cc[n+](C)c1.O=S(=O)([O-])C(F)(F)F [1-ethyl-3-methylimidazolium trifluoromethanesulfonate] ... 1424.3
CCCCCCn1cc[n+](C)c1.F[B-](F)(F)F [1-hexyl-3-methylimidazolium tetrafluoroborate] ... 1506.9
C[N+](=O)[O-] ... 1300.5
CCCCn1cc[n+](C)c1.O=S(=O)([O-])C(F)(F)F [1-butyl-3-methylimidazolium trifluoromethanesulfonate] ... 1380.9
CCCCn1cc[n+](C)c1.COS(=O)(=O)[O-] [1-butyl-3-methylimidazolium methyl sulfate] ... 1646
CCCC[n+]1cccc(C)c1.F[B-](F)(F)F [1-butyl-3-methylpyridinium tetrafluoroborate] ... 1574.8
CCCCn1cc[n+](C)c1.F[B-](F)(F)F [1-butyl-3-methylimidazolium tetrafluoroborate] ... 1555.5

Now look at this one.
Summary for this compound, CCOS(=O)(=O)[O-].CCn1cc[n+](C)c1 [1-ethyl-3-methylimidazolium ethyl sulfate] : speed of sound is 1666.6

The origin of these recorded values is the NIST ThermoML archive (doi:10.1016/j.jct.2008.09.002).
